tested on: Fibroblast; assay: Multiplex assay against human fibroblast; assay type: toxicity, cell-based; conditions: 24 h, 1 µM, compound concentration 1 uM, replicate 1
Population Mitochondria Different-Phenotype (%) less than 5% is t; Population Mitochondria Different-Phenotype (%) greater than or equal to 5% is f.

# compound, group-label
rows = [
    ("COc1ccc(NS(=O)(=O)c2sc3ccc(Cl)cc3c2C)cc1N1CCNCC1.Cl", "t"),
]

Field: below-cutoff. Rule: recorded Population Mitochondria Different-Phenotype (%) strictly less than 5%. Subject: `Nc1ccc(C(=O)Nc2cccc(-c3nc(N4CCOCC4)c4oc5ncccc5c4n3)c2)cn1`
t

Would you kindly repeat that for CCC(=O)O[C@]1(C(=O)SCF)[C@H](C)C[C@H]2[C@@H]3C[C@H](F)C4=CC(=O)C=C[C@]4(C)[C@@]3(F)[C@@H](O)C[C@@]21C [FLUTICASONE PROPIONATE] ?
t

Would you kindly repeat that for `CC(C)N1CCC(C)(C)c2cc(C#Cc3ccc(C(=O)O)cc3)ccc21` ?
t

Would you kindly repeat that for `CC(=O)c1cc(-c2cc(C(=O)NC3CC3)ccc2C)c2ncccn12` ?
f

Would you kindly repeat that for CNC(=O)c1cc(Oc2ccc(NC(=O)Nc3cc(C(C)(C)C)nn3-c3ccc4ncccc4c3)c(F)c2)ccn1 [REBASTINIB] ?
t

Would you kindly repeat that for CNC(=O)c1nn(C)c2c1C(C)(C)Cc1cnc(Nc3ccc(N4CCN(C)CC4)cc3)nc1-2 [MILCICLIB] ?
f

* * *

tested on: HEK-293T; experiment: Multiplex assay against HEK293T; format: toxicity, cell-based; conditions: human, 24 h, 1 µM, compound concentration 1 uM, replicate 2
Class (required): determined from Population Membrane Permeable-Phenotype (%); valid ranges are low-valued = under 2%, mid-valued = from 2% up to 5%, high-valued = 5% and over

# smiles-code, group-label
rows = [
    ("CCc1cc2c(cc1CC)CC(NC[C@H](O)c1ccc(O)c3[nH]c(=O)ccc13)C2", "mid-valued"),
]

Sort `CC(C)(C)c1cnc(CSc2cnc(NC(=O)C3CCNCC3)s2)o1` into one of the categories.
low-valued

Would you kindly repeat that for `CC(C)N1CCC(C)(C)c2cc(C#Cc3ccc(C(=O)O)cc3)ccc21` ?
high-valued

Would you kindly repeat that for `CCCn1c(=O)c2[nH]c(C34CC5CC(CC3C5)C4)nc2n(CCC)c1=O` ?
high-valued

* * *

tested on: HEK-293T; experiment: Multiplex assay against HEK293T; assay type: toxicity, cell-based; conditions: human, 24 h, 10 µM, compound concentration 10 uM, replicate 1
Population Mitotic Cells (%) less than 40% is true (1); Population Mitotic Cells (%) greater than or equal to 40% is false (0).

# compound, group-label
measured = [
    ("CCC(=O)O[C@]1(C(=O)SCF)[C@H](C)C[C@H]2[C@@H]3C[C@H](F)C4=CC(=O)C=C[C@]4(C)[C@@]3(F)[C@@H](O)C[C@@]21C [FLUTICASONE PROPIONATE]", "true (1)"),
    ("CC(=O)c1cc(-c2cc(C(=O)NC3CC3)ccc2C)c2ncccn12", "false (0)"),
    ("Nc1ccc(C(=O)Nc2cccc(-c3nc(N4CCOCC4)c4oc5ncccc5c4n3)c2)cn1", "true (1)"),
    ("COc1cc2c(Nc3ccc(NC(=O)c4ccccc4)cc3)ncnc2cc1OCCCN1CCOCC1", "false (0)"),
    ("Cl.Cl.NC1(c2ccc(-c3nc4ccn5c(=O)[nH]nc5c4cc3-c3ccccc3)cc2)CCC1", "false (0)"),
    ("CCc1cc2c(cc1CC)CC(NC[C@H](O)c1ccc(O)c3[nH]c(=O)ccc13)C2", "true (1)"),
    ("Cl.Cl.Nc1ncnc2c1c(-c1cccc(OCc3ccccc3)c1)cn2[C@H]1C[C@@H](CN2CCC2)C1", "true (1)"),
    ("CN(C)C/C=C/C(=O)Nc1cc2c(Nc3ccc(F)c(Cl)c3)ncnc2cc1O[C@H]1CCOC1.O=C(O)/C=C\\C(=O)O.O=C(O)/C=C\\C(=O)O [AFATINIB DIMALEATE]", "false (0)"),
]

Field: below-cutoff. Rule: recorded Population Mitotic Cells (%) strictly less than 40%. Subject: `CN(C)CCOc1ccc(-c2nc(-c3ccncc3)c(-c3ccc4c(c3)CC/C4=N\O)[nH]2)cc1`
false (0)

Would you kindly repeat that for `CCOc1cc(N2CCC(O)CC2)ccc1Nc1ncc2c(n1)N(C1CCCC1)CCC(=O)N2C` ?
false (0)

Would you kindly repeat that for `Cc1cc2c(cc1N1C(=O)c3cccc4c(CCCO)ccc(c34)C1=O)n(C)c(=O)n2C` ?
true (1)

Would you kindly repeat that for `CC(C)(C)c1cnc(CSc2cnc(NC(=O)C3CCNCC3)s2)o1` ?
false (0)

Would you kindly repeat that for `CCOc1cc2ncc(C#N)c(Nc3ccc(OCc4cccc(F)c4)c(Cl)c3)c2cc1NC(=O)/C=C/CN(C)C` ?
false (0)

Would you kindly repeat that for `COc1ccc(NS(=O)(=O)c2sc3ccc(Cl)cc3c2C)cc1N1CCNCC1.Cl` ?
true (1)
